assay: Plasma concentration in rat at 3 mg/kg, po after 24 hrs; type: ADME, organism-based; set-up: dose 3 mg/kg, route oral
measurementName: concentration at 24 h (ng/mL)

• CCN(CC)c1ncc(N(C(C)C)S(C)(=O)=O)c(N[C@@H](Cc2ccc(OC(=O)N3CCCC3)cc2)C(=O)O)n1 = 358

* * *

assay: Cmax in rat at 1 mg/kg, po; format: ADME, organism-based; parameters: dose 1 mg/kg, route oral; conditions: in vivo
measurementName: Cmax (ng/mL)

- CCN(CC)c1ncc(N(C(C)C)S(C)(=O)=O)c(N[C@@H](Cc2ccc(OC(=O)N3CCCC3)cc2)C(=O)O)n1: 230

* * *

test: Plasma concentration in rat at 1 mg/kg, po after 24 hrs; format: ADME, organism-based; parameters: dose 1 mg/kg, route oral
measurementName: concentration at 24 h (ng/mL)

* CCN(CC)c1ncc(N(C(C)C)S(C)(=O)=O)c(N[C@@H](Cc2ccc(OC(=O)N3CCCC3)cc2)C(=O)O)n1 | 110

* * *

assay: Plasma concentration in rat at 100 mg/kg, po after 24 hrs; format: ADME, organism-based; design: dose 100 mg/kg, route oral
measurementName: concentration at 24 h (ng/mL)

• CCN(CC)c1ncc(N(C(C)C)S(C)(=O)=O)c(N[C@@H](Cc2ccc(OC(=O)N3CCCC3)cc2)C(=O)O)n1 = 13600

* * *

experiment: Cmax in rat at 1000 mg/kg, po; assay type: ADME, organism-based; parameters: dose 1000 mg/kg, route oral; conditions: in vivo
measurementName: Cmax (µg/mL)

- CCN(CC)c1ncc(N(C(C)C)S(C)(=O)=O)c(N[C@@H](Cc2ccc(OC(=O)N3CCCC3)cc2)C(=O)O)n1: 214

* * *

target: Integrin alpha-4/beta-1 (Homo sapiens, UniProt P05556+P13612); experiment: Inhibition of alpha4beta1 integrin-mediated human jurkat cell adhesion to fibronectin in presence of human serum albumin; format: protein-complex assay
Sequence (P05556 whole entry): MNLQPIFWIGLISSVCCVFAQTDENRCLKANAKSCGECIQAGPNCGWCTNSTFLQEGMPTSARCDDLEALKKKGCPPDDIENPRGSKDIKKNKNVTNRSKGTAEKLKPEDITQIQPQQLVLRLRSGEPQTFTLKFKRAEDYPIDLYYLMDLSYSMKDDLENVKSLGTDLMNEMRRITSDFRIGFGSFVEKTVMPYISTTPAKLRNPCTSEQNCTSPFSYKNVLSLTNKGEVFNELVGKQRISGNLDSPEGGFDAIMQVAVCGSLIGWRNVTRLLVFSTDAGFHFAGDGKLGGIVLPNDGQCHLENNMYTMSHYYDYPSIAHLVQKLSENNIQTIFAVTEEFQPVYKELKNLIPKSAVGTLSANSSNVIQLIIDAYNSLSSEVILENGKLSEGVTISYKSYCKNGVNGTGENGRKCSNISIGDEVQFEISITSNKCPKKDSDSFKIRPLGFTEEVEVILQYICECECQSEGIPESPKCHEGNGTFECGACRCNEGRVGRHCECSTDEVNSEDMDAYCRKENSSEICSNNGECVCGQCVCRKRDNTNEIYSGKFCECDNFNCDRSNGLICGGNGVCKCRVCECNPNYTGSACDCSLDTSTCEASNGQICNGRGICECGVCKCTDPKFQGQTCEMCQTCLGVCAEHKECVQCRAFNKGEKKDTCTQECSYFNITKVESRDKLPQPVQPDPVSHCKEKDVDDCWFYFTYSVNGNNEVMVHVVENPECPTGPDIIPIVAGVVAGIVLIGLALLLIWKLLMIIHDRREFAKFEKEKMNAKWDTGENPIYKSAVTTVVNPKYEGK
Sequence (P13612 whole entry): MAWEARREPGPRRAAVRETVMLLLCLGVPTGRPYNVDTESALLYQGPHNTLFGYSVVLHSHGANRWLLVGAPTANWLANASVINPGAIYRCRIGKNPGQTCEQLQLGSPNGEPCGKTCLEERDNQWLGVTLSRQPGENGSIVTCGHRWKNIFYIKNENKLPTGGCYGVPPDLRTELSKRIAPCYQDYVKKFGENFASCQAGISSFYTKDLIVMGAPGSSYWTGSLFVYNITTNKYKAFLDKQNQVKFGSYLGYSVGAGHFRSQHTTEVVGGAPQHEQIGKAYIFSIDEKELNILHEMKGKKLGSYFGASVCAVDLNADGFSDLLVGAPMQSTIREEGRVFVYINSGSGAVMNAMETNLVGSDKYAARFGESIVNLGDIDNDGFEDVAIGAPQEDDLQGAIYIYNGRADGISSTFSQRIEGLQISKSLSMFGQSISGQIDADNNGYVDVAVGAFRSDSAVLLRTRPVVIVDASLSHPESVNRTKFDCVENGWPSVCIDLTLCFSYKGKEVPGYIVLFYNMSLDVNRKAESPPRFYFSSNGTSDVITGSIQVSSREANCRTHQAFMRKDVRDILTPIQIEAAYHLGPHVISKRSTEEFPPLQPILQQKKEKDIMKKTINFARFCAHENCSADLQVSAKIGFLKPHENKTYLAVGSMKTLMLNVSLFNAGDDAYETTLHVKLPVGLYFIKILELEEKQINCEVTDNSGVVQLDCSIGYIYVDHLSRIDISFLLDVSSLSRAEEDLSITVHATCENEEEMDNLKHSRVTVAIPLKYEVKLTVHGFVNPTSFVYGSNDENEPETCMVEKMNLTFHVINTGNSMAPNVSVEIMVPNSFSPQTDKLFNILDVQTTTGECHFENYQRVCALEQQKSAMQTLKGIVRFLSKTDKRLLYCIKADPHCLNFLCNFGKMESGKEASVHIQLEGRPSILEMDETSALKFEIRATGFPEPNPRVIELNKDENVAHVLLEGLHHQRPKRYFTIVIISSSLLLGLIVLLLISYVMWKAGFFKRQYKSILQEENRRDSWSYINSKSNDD
pIC50: −log10 of the molar value.
measurementName: pIC50

* CCNc1ncc(N(C(C)C)S(C)(=O)=O)c(N[C@@H](Cc2ccc(OC(=O)N3CCCC3)cc2)C(=O)O)n1 | 5.32

* * *

assay: AUC (0 to infinity) in rat at 100 mg/kg, po; assay type: ADME, organism-based; set-up: time infinity, dose 100 mg/kg, route oral; details: plasma
measurementName: AUC(0-inf) (µg·h/mL)

- CCN(CC)c1ncc(N(C(C)C)S(C)(=O)=O)c(N[C@@H](Cc2ccc(OC(=O)N3CCCC3)cc2)C(=O)O)n1: 1260

* * *

assay: Volume of distribution at steady state in iv dosed rat; format: ADME, organism-based; details: in vivo, read-out: Vdss
measurementName: Vd (L/kg)

• CCN(CC)c1ncc(N(C(C)C)S(C)(=O)=O)c(N[C@@H](Cc2ccc(OC(=O)N3CCCC3)cc2)C(=O)O)n1 = 0.068

* * *

experiment: AUC (0 to infinity) in rat at 1000 mg/kg, po; type: ADME, organism-based; parameters: time infinity, dose 1000 mg/kg, route oral; conditions: plasma
measurementName: AUC(0-inf) (µg·h/mL)

- CCN(CC)c1ncc(N(C(C)C)S(C)(=O)=O)c(N[C@@H](Cc2ccc(OC(=O)N3CCCC3)cc2)C(=O)O)n1: 4480

Just for reference, ChEMBL document CHEMBL2406934 is where these values come from.
